Data credit: PubChem BioAssay AID1963822

Assay: growth inhibitors of anaerobic choline-fed gram-negatives, minimal medium, absorbance (AID 1963822)
Settings: Gram-negative bacterium anaerobic choline minimal medium
About 90 (0.2%) of roughly 55,000 compounds were called active. No rule for the calls is given here. This is one part of a sample in which actives are shown more often than they occur.
Lab note: assign the record to one of active, inactive

Lab log entry: "CCOc1ccc(NC(=O)NCCn2c(C(F)(F)F)nc3ccccc32)cc1" — outcome as called in the assay? inactive

Lab log entry: "COc1ccccc1N1CCN(c2ccc(=O)n(CC(=O)NCc3ccccn3)n2)CC1" — outcome as called in the assay? inactive

Lab log entry: CCOC(=O)C1CCCN(C(=O)Cn2c(=O)c3ccccc3n3c(=S)sc(-c4ccccc4)c23)C1 (stereo not drawn) — outcome as called in the assay? inactive

Lab log entry: "O=C1Nc2ccccc2Oc2cc(Cl)c(S(=O)(=O)N3CCCC3)cc21" — outcome as called in the assay? inactive

Lab log entry: COc1ccc(CN2CCCC2c2cc(C)on2)cc1CN1CCOCC1 (stereo not drawn) — outcome as called in the assay? inactive

Lab log entry: "Cn1c(=O)oc2cc(S(=O)(=O)N3CCC4(CC3)Nc3cc(F)ccc3-n3cccc34)ccc21" — outcome as called in the assay? inactive

Lab log entry: "Cn1c(=O)c2[nH]c(-c3ccncc3)nc2n(C)c1=O" — outcome as called in the assay? inactive

Lab log entry: "CC(C)c1nnc2ccc(N3CCN(C(C)C)CC3)nn12" — outcome as called in the assay? inactive
